Source of measurements: ChEMBL document CHEMBL4052591

Test system: Candida albicans
experimental protocol: Inhibition of Candida albicans CDR1 transporter expressed in Saccharomyces cerevisiae AD cells assessed as nile red accumulation at 70 uM after 30 mins by flow cytometric analysis relative to control
Type: cell-based
Activity calls are given as the source filed them. The calls are words filed in the database; no cut-off is given here.
outcome measure: inhibition

Q: Would you kindly share the measured inhibition for C=C1[C@@H](OC(C)=O)[C@H]2[C@@H](OC(C)=O)[C@](C)(O)C[C@]2(OC(C)=O)C(=O)[C@H](C)/C=C/C(C)(C)C(=O)[C@H](OC(=O)C(C)C)[C@H]1OC(C)=O ?
Ans: inactive

Q: For the compound shown here, C=C1[C@@H](OC(C)=O)[C@H]2[C@@H](OC(C)=O)[C@](C)(OC(=O)c3cccnc3)C[C@]2(OC(C)=O)C(=O)[C@@H](C)/C=C/C(C)(C)[C@H](OC(=O)c2cccnc2)[C@H](OC(C)=O)[C@H]1OC(=O)C(C)C , give the reported inhibition.
Ans: inactive

Q: Find the recorded inhibition belonging to C=C1[C@@H](OC(=O)C(C)C)[C@H]2[C@@H](OC(=O)c3ccccc3)[C@](C)(OC(C)=O)C[C@]2(O)C(=O)[C@@H](C)/C=C/C(C)(C)[C@H](OC(C)=O)[C@H](OC(C)=O)[C@H]1OC(=O)C(C)C and report it.
Ans: inactive

Q: I would be grateful if you could share the reported inhibition for CC(=O)O[C@H]1[C@@H](OC(C)=O)C(C)(C)/C=C/[C@@](C)(O)C(=O)[C@@]2(O)C[C@@](C)(OC(C)=O)[C@H](OC(C)=O)[C@@H]2[C@H]2OC(=O)CC[C@@]2(OC(=O)C(C)C)[C@@H]1OC(=O)C(C)C .
Ans: inactive

Q: What value of inhibition has been recorded for this entry: C=C1[C@@H](OC(=O)C(C)C)[C@H]2[C@@H](OC(=O)C(C)C)[C@](C)(OC(C)=O)C[C@]2(O)C(=O)[C@@H](C)/C=C/C(C)(C)[C@H](OC(C)=O)[C@H](OC(C)=O)[C@H]1OC(=O)c1ccccc1
Ans: inactive

Hi! Can you tell me inhibition for each of these compounds?
1. C=C1[C@@H](OC(=O)C(C)C)[C@H]2[C@@H](OC(C)=O)[C@](C)(OC(C)=O)C[C@]2(O)C(=O)[C@@H](C)/C=C/C(C)(C)[C@H](OC(C)=O)[C@H](OC(C)=O)[C@H]1OC(=O)c1ccccc1
2. C=C1[C@@H](OC(C)=O)[C@H]2[C@@H](OC(C)=O)[C@](C)(OC(C)=O)C[C@]2(OC(C)=O)C(=O)[C@H](C)/C=C/C(C)(C)C(=O)[C@H](OC(=O)c2ccccc2)[C@H]1OC(C)=O

Ans:
["inactive", "inactive"]

* * *

System: Candida albicans
experimental protocol: Inhibition of Candida albicans CDR1 expressed in Saccharomyces cerevisiae AD assessed as ratio of MIC80 of fluconazole in combinantion with compound to MIC80 of fluconazole alone for Saccharomyces cerevisiae AD by checkerboard method
outcome measure: Ratio
Numbers only.

Q: Please look up its Ratio: C=C1[C@@H](OC(=O)C(C)CC)[C@H]2[C@@H](O)[C@](C)(OC(C)=O)C[C@]2(O)C(=O)[C@@H](C)/C=C/C(C)(C)[C@H](OC(C)=O)[C@H](OC(C)=O)[C@H]1OC(=O)c1ccccc1 (some centres undefined)
Ans: 1

Q: What does the data say about its Ratio? Entry: C=C1[C@@H](OC(C)=O)[C@H]2[C@@H](OC(=O)COC(=O)c3ccccc3)[C@](C)(OC(C)=O)C[C@]2(O)C(=O)[C@@H](C)/C=C/C(C)(C)[C@H](OC(C)=O)[C@H](OC(C)=O)[C@H]1OC(=O)C(C)C
Ans: 0.2

Q: Need Ratio of C=C1[C@@H](OC(C)=O)[C@H]2[C@@H](OC(=O)c3ccccc3)[C@@H](C)C[C@]2(O)[C@H](O)[C@H](C)/C=C/C(C)(C)C(=O)[C@H](OC(=O)C(C)C)[C@H]1OC(C)=O , thanks.
Ans: 1

Now take the following compound into account.
Q: Quick check: Ratio of CC(=O)O[C@H]1[C@@H](OC(C)=O)C(C)(C)/C=C/[C@@](C)(O)C(=O)[C@@]2(O)C[C@@](C)(OC(C)=O)[C@H](OC(C)=O)[C@@H]2[C@H]2OC(=O)CC[C@@]2(OC(C)=O)[C@@H]1OC(=O)C(C)C ?
Ans: 1
